TARGET_OF_ASSAY: Glucocorticoid receptor (Hu-GR), unliganded (human, UniProt P04150 1-777)
Sequence (P04150 whole entry): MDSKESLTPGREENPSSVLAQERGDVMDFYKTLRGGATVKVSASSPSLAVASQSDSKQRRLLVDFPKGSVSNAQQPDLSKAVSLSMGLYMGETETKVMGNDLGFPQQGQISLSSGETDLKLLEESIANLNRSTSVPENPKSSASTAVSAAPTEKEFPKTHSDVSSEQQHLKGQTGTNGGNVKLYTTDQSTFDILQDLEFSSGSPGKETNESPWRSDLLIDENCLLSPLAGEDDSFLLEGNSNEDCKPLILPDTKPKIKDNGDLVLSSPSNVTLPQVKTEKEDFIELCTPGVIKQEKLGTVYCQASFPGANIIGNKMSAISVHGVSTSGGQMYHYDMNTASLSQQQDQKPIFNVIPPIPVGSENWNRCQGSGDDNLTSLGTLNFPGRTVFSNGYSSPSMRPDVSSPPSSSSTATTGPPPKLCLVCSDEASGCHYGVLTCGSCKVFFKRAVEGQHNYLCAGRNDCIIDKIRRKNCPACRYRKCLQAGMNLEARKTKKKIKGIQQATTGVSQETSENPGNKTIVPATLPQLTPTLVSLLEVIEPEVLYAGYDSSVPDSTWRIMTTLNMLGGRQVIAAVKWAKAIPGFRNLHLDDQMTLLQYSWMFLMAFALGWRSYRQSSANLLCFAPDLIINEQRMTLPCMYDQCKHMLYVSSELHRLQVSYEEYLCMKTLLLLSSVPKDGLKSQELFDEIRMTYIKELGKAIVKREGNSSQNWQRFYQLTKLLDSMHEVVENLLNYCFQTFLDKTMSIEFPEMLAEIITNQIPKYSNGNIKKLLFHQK
PROCEDURE_DETAILS: EMSA; no glucocorticoid; GR 40 ng (0.5 pmol), probe 0.5 ng (0.05 pmol), 1 ug poly(dI-dC), 25 ul; 6% non-denaturing PAGE; buffer, salt, pH and temperature not stated
REPORTED_CONDITIONS: protein: recombinant; chain copies: 2; label: 32P 5'-end; blunt
OBSERVED_PROPERTY: binding result

Mut-GRE2 (dsDNA) DNA 1: GGTGGAACCCAAGAGCACCCTTTGGTCCTG DNA 2: CAGGACCAAAGGGTGCTCTTGGGTTCCACC ... no binding
Mut-GRE1 (dsDNA) DNA 1: CAAACTAGCGCCAGGTCTTTACTGAATGCCC DNA 2: GGGCATTCAGTAAAGACCTGGCGCTAGTTTG ... no binding
Wt-GRE1 (dsDNA) DNA 1: CAAACTAGCGCTGTTCTTTACTGAATGCCC DNA 2: GGGCATTCAGTAAAGAACAGCGCTAGTTTG ... binds
Wt-GRE2 (dsDNA) DNA 1: GGTGGAACCCAATGTTCTCCTTTGGTCCTG DNA 2: CAGGACCAAAGGAGAACATTGGGTTCCACC ... binds
